Where these numbers come from: patent US20170174769A1

- TEST_SYSTEM: M. fascicularis KLB and human FGFR1c co-expressed on HEK293/MfKLB/hFGFR1c/SRE-Luc cells (M. fascicularis; human, UniProt A0A2K5WB58 1-1044)
- Sequence (chain, as listed by the source, chain 1 of 2): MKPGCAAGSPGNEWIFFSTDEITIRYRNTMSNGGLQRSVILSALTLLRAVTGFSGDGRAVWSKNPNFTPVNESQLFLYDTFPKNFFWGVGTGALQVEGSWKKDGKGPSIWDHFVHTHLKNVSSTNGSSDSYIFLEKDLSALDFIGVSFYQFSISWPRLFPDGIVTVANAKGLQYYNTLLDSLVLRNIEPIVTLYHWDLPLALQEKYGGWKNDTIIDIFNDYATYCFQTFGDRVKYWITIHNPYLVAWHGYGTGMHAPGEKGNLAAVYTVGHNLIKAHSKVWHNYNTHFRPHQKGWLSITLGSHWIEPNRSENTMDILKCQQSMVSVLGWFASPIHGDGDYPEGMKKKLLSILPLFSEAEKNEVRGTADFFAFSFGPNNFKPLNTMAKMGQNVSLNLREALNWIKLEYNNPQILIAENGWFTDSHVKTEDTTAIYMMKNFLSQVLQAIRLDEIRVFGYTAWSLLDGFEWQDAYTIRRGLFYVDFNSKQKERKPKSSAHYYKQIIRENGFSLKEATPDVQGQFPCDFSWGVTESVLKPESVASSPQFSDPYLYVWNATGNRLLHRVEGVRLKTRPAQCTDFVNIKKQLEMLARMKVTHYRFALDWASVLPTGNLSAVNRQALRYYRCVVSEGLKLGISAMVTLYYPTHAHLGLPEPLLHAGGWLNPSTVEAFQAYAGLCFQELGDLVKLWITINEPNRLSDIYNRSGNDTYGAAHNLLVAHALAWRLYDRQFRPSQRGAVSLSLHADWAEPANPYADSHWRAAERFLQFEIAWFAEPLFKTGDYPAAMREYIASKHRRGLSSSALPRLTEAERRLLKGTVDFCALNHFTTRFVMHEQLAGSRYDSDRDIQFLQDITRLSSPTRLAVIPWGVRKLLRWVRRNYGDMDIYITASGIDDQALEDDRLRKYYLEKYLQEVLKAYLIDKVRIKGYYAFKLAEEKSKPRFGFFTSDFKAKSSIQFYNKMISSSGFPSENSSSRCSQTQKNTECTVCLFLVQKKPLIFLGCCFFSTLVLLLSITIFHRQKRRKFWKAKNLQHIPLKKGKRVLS
- Sequence (chain, as listed by the source, chain 2 of 2): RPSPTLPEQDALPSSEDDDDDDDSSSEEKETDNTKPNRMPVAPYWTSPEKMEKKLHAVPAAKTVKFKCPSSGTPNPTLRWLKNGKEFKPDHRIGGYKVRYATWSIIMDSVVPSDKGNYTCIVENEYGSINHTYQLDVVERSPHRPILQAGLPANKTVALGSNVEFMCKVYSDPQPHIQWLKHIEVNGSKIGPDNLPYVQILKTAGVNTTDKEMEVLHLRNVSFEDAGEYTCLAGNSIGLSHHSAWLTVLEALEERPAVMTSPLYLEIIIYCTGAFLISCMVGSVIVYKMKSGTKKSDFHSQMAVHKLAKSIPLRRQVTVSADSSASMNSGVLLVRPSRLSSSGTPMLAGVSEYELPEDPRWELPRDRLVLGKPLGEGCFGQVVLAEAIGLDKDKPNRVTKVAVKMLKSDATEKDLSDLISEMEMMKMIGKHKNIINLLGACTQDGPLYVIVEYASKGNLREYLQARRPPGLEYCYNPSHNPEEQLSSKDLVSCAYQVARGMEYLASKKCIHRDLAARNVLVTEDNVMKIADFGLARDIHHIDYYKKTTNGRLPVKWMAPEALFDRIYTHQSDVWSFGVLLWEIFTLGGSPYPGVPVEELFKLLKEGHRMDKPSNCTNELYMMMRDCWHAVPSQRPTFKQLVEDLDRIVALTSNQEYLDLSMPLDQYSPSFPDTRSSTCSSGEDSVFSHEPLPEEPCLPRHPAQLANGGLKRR
- ASSAY_PROCEDURE: cell-based or functional assay
Exercise: state measured Maximum Inhibition (%) of 10 nM mfFGF21 for each of the binders provided.
Field: numeric (%). Do not append units.

*Q* Please give the documented Maximum Inhibition (%) of 10 nM mfFGF21 of H2aM8093N (antibody, V domains shown, mouse IgG2 Fc (H2aM prefix)) VH: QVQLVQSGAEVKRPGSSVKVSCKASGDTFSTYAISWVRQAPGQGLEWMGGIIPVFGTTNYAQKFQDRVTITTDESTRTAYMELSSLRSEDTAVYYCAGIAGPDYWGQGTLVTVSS VL: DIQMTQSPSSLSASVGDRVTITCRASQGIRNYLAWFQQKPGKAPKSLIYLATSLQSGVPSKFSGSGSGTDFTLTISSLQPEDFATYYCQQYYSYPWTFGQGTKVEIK
*A* 46

*Q* Give me measured Maximum Inhibition (%) of 10 nM mfFGF21, please, for this binder: H4H8878P (antibody, V domains shown, human IgG4 Fc (H4H prefix)) VH: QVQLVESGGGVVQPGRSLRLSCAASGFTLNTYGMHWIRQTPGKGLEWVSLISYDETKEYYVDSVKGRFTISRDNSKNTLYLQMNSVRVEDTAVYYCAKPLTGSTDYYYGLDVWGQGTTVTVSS VL: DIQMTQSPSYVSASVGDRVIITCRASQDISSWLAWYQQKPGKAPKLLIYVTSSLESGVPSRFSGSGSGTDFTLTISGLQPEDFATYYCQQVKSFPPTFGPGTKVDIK
*A* 38

*Q* Identify measured Maximum Inhibition (%) of 10 nM mfFGF21 corresponding to H4H8880P (antibody, V domains shown, human IgG4 Fc (H4H prefix)) VH: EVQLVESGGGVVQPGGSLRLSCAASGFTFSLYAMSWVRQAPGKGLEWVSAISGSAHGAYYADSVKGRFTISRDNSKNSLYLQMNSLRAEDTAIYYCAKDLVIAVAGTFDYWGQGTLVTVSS VL: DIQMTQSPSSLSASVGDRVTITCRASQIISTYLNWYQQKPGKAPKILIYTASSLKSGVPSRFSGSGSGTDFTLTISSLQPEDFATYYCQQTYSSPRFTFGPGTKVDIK
*A* 39

*Q* Give Maximum Inhibition (%) of 10 nM mfFGF21 for H4H8871P (antibody, V domains shown, human IgG4 Fc (H4H prefix)) VH: QVQLQESGPGLVKPSETLSLTCTVSGASISSYYWSWIRQPPGKGLEWIGYIYSSGIIKYNPSLKSRVTISADTSKNQFSLKLSSVTAADTAVYYCARHGIFGVMEYFQRWGQGTLVTVSS VL: DIQMTQSPSSLSASIGDRVTITCQASQDIGNFLNWYHQKPGKAPTLLIYDASNMETGVPSRFRGSGSGTYFTFIISSLQPEDVATYYCQQYDNLPLTFGGGTKVEIK
*A* 92

*Q* Determine from records and report Maximum Inhibition (%) of 10 nM mfFGF21 for H2aM8091N (antibody, V domains shown, mouse IgG2 Fc (H2aM prefix); also called H2M8091N) VH: QVQLVQSGADMKKPGASVKVSCKASGYTFTTYGINWVRQAPGQGLEWMGWISAYSGITNYAQSFQGRVTMTTDTSTSTAYMELRSLRSDDTAVYYCARGGYNWATGDYFDYWGQGTLVTVSS VL: DIQMTQSPSTLSASIGDRVTITCRASQSISSWLAWYQQKPGKAPKFLIYKASSLASGVPSRFSGSGSGTEFTLTISSLQPDDFATYYCQQYDSYSPYTFGQGTKVEIK
*A* 104

*Q* For the binder H4H8837P (antibody, V domains shown, human IgG4 Fc (H4H prefix)) VH: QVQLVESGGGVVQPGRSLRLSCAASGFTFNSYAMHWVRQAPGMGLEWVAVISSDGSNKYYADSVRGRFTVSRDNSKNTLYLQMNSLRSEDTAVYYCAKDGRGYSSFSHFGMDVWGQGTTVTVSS VL: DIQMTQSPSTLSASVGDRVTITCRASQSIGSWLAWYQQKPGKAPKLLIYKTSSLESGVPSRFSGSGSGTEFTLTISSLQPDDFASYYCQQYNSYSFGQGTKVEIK , give its reported Maximum Inhibition (%) of 10 nM mfFGF21.
*A* 51
